Just for reference, PubChem BioAssay (NCI) is where these values come from.

System: A498 renal
Test: NCI-60 one-dose screen, 48 h
Conditions: 10 µM unless noted
Experimental: Growth inhibition of the A498 human tumor cell line is measured as a screen for anti-cancer activity. Cells are grown in 96 well plates and exposed to the test compound for 48 hours. Compounds are tested at a single concentration, which is 10^-5 M for most compounds. The reported endpoint is percent growth (GI% or GIPRCNT), where numbers from 0 - 100% represent growth inhibition, and numbers from -100% - 0 represent cell death. For example, a value of 40 represents 60% growth inhibition. […]
About 83,000 compounds went through this panel and 20% of them were active in at least one assay; those are over-represented in the sample as a whole. Active and inactive are the calls of the source. How the source made its calls: active means growth percent below 10; inactive means the rest.
Just give me one of these, please: 1 for active, -1 for inactive

Challenge: Hello, I am checking results. What call was entered for CCOC(=O)N1CCC(N=C2CSc3nnc(-c4cc(C(F)(F)F)cc(C(F)(F)F)c4)n3N2)CC1 ?
Response given: -1

Challenge: Hello, I am checking results. What call was entered for Cc1ccc(-c2c3c(N)c4c(nc3nc3c2c(C)nn3-c2ccccc2)CCC4)cc1 ?
Response given: -1

Challenge: Hello, I am checking results. What call was entered for O=C(O)c1ccc(CNS(=O)(=O)c2ccc3ccccc3c2)cc1 ?
Response given: -1

Challenge: Hello, I am checking results. What call was entered for COc1ccc(C2=NN(C(C)=O)C(c3cccc(Nc4ccnc5cc(Cl)ccc45)c3)C2)cc1 (stereo unspecified) ?
Response given: -1

Challenge: Hello, I am checking results. What call was entered for CC[n+]1c(/C=C/c2ccc(N3CCCC3)cc2)cccc1/C=C/c1ccc(N2CCCC2)cc1 ?
Response given: 1

Challenge: Hello, I am checking results. What call was entered for O=C(COc1cccc(/C=C2\Cc3ccccc3C2=O)c1)c1ccc(Cl)cc1 ?
Response given: -1

Challenge: Hello, I am checking results. What call was entered for CCOC(=O)C1=CCC(n2cc(C)c(=O)[nH]c2=O)O1 (stereo unspecified) ?
Response given: -1

Challenge: Hello, I am checking results. What call was entered for c1ccc2nc(Cn3c[n+](Cc4ccc5ccccc5n4)c4ccccc43)ccc2c1 ?
Response given: -1
